Every entry's value here was drawn from paper PMC6017536.

Here we list molecules with their recorded IC50 when tested on human Smo (Homo sapiens, UniProt Q99835).
Sequence (Q99835 28-787): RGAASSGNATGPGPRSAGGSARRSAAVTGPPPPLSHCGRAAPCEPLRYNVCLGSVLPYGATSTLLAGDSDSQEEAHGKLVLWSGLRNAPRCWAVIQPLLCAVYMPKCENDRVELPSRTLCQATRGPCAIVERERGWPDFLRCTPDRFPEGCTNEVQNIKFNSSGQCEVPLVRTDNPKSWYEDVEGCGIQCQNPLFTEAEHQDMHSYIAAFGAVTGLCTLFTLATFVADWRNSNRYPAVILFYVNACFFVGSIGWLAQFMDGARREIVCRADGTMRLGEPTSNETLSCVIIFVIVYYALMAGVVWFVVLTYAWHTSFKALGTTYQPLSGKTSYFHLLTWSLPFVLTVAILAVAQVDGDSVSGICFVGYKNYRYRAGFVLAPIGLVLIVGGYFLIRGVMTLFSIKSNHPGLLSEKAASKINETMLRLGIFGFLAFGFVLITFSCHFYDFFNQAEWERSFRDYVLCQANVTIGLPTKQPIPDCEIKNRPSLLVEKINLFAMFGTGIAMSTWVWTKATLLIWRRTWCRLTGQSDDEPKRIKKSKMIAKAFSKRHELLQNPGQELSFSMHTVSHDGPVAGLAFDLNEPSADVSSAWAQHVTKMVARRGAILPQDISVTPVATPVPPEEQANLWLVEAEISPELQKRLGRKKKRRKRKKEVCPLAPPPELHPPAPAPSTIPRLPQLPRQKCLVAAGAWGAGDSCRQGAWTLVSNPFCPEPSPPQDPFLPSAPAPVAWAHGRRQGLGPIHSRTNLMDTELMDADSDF

structure-smiles	assay-target	IC50
CN1CCN(C(=O)C2CCN(c3cccc(NC(=O)c4cccnc4)c3)CC2)CC1	human Smo (Homo sapiens, UniProt Q99835)	6.35 µM
CN1CCN(C(=O)C2CCN(c3cccc(NC(=O)c4ccc(S(C)(=O)=O)cc4Cl)c3)CC2)CC1	human Smo (Homo sapiens, UniProt Q99835)	6.23 µM

* * *

Listed here: items and their measured IC50.
# Test system: Hh signaling pathway (Gli-luc reporter, NIH3T3 cells)
# experiment-summary: NIH3T3-Gli-luciferase reporter assay (Gli-Luc dual luciferase)
# Assay type: cell-based, Mouse
# conditions: Mus musculus; NIH3T3 cells transfected with Gli luciferase reporter, stimulated with 10 nM SAG, 24 h; average of triplicate separate determinations

molecule	IC50 (µM)
CS(=O)(=O)c1ccc(C(=O)Nc2ccc(Cl)c(-c3ccccn3)c2)c(Cl)c1 [Vismodegib, reference compound]	0.025
CS(=O)(=O)N1CCN(C(=O)Cc2ccc(Cl)c(NC(=O)c3ccc(Cl)cc3)c2)CC1 [Compound 8a]	6.88
CCCCS(=O)(=O)N1CCN(C(=O)Cc2ccc(Cl)c(NC(=O)c3ccc(Cl)cc3)c2)CC1 [Compound 8c]	8.62
COc1cc(OC)cc(C(=O)Nc2cccc(N3CCC(C(=O)N4CCN(C)CC4)CC3)c2)c1 [Compound 5l]	1.83
CN1CCN(C(=O)C2CCN(c3cccc(NC(=O)c4ccc(S(C)(=O)=O)cc4)c3)CC2)CC1 [Compound 5p]	3.43
CN1CCN(C(=O)C2CCN(c3cccc(NC(=O)c4ccccc4Br)c3)CC2)CC1 [Compound 5m]	10.5
CN1CCN(C(=O)C2CCN(c3cccc(NC(=O)c4ccc(Br)cc4)c3)CC2)CC1 [Compound 5h]	7.85
COc1cc(C(=O)NC(=S)Nc2cccc(NC(=O)c3ccccc3)c2)cc(OC)c1OC [MRT10, reference compound]	2.15
O=C(Nc1cc(CC(=O)N2CCN(S(=O)(=O)c3ccc(F)cc3)CC2)ccc1Cl)c1ccc(Cl)cc1 [Compound 8b]	12.7
CN1CCN(C(=O)C2CCN(c3cccc(NC(=O)c4ccc(S(C)(=O)=O)cc4Cl)c3)CC2)CC1 [Compound 5o]	4.28
CN1CCN(C(=O)C2CCN(c3cccc(NC(=O)c4ccccc4)c3)CC2)CC1 [Compound 5a]	28.5
CN1CCN(C(=O)C2CCN(c3cccc(NC(=O)c4ccc(F)cc4)c3)CC2)CC1 [Compound 5d]	15.5
CN1CCN(C(=O)C2CCN(c3cccc(NC(=O)c4cccc([N+](=O)[O-])c4)c3)CC2)CC1 [Compound 5f]	53.3
CN1CCN(C(=O)C2CCN(c3cccc(NC(=O)c4cccc(-c5ccccn5)c4)c3)CC2)CC1 [Compound 5q]	1.26
CN1CCN(C(=O)C2CCN(c3cccc(NC(=O)c4ccc([N+](=O)[O-])cc4)c3)CC2)CC1 [Compound 5g]	60.6
CN1CCN(C(=O)C2CCN(c3cccc(NC(=O)c4cccnc4)c3)CC2)CC1 [Compound 5n]	5.32
CN1CCN(C(=O)C2CCN(c3cccc(NC(=O)c4cccc(F)c4)c3)CC2)CC1 [Compound 5e]	17.6
CN1CCN(C(=O)C2CCN(c3cccc(NC(=O)c4ccc(Cl)cc4)c3)CC2)CC1 [Compound 5b]	12.5
CN1CCN(C(=O)C2CCN(c3cccc(NC(=O)c4cccc(Cl)c4)c3)CC2)CC1 [Compound 5c]	14.6
Cc1ccccc1C(=O)Nc1cccc(N2CCC(C(=O)N3CCN(C)CC3)CC2)c1 [Compound 5k]	16.6
